- experimental_system: human ether-à-go-go-related gene (hERG) potassium channel (human, UniProt Q12809);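 also: peak tail current of the secondary pulse compared with the same well before compound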
- Sequence (Q12809 whole entry, looked up): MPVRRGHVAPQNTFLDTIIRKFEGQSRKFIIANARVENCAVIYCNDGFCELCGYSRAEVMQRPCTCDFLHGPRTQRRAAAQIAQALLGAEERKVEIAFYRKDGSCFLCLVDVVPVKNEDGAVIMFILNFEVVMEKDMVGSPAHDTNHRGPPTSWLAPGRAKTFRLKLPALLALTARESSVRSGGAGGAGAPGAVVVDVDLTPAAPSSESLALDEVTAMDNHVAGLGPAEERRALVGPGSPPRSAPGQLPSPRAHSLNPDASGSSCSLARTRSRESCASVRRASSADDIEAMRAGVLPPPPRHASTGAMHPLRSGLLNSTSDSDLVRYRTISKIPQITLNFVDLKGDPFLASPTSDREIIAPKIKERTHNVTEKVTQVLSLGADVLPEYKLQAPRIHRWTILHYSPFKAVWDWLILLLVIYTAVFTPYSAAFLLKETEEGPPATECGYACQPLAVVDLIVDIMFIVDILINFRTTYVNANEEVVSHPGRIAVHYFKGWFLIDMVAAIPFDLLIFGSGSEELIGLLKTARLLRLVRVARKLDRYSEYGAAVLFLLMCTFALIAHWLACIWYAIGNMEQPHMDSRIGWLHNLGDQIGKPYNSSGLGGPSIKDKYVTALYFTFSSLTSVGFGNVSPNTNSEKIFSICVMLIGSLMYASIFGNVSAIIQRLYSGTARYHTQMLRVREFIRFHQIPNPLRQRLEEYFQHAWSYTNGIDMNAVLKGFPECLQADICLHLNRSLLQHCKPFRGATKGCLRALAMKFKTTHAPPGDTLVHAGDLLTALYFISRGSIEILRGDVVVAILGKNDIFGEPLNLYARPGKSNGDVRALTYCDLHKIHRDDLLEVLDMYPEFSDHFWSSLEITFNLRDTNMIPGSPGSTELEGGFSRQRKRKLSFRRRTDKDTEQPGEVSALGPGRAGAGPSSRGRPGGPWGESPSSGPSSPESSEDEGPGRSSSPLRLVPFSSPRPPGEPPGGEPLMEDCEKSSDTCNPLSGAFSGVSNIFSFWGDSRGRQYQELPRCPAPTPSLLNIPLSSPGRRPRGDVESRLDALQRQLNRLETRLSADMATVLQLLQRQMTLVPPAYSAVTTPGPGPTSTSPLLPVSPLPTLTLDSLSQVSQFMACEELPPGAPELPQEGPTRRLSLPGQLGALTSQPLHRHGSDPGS
- experiment: primary screen, population patch clamp on CHO cells stably expressing hERG; higher = less effect of the substance
About 14,000 (4.5%) of roughly 310,000 compounds showed an effect of 50% or more. Effects have a minus sign here. The full list was thinned out, with strong results kept by preference.
Below is a list of entries, each paired with its recorded hERG current change (%, negative = inhibition) at 10uM value.
// units = %; emit number, no label

Cc1cccn2c(=O)nc(SCC(=O)N3CCCC3)nc12; -22.6
Cc1ccc(S(=O)(=O)N(C)c2ccccc2C(=O)Nc2c(F)cccc2F)cc1; 3.31
Cc1ccc([N+](=O)[O-])c(OCC(O)CNC(C)(C)C)c1.Cl (centres unmarked); 3.01
COc1ccc(CNCC(O)COc2ccc(C)cc2[N+](=O)[O-])cc1 (centres unmarked); -71.2
Cn1nc(C(C)(C)C)c([N+](=O)[O-])c1C(=O)N1CCOCC1; 17.3
C=CCSc1nc(=O)n2ccc(C)cc2n1; -22.9
COc1ccc(CN2CCN(CCCCOc3ccc(Cl)cc3)CC2)c(OC)c1OC.O=C(O)C(=O)O; -74.4
Cc1cccn2c(=O)nc(SCC(=O)N3CCOCC3)nc12; 9.72

Query: May I ask what hERG current change (%, negative = inhibition) at 10uM has been recorded for `Cc1cccn2c(=O)nc(SCC(=O)N3CCN(c4ccccc4)CC3)nc12` ?
Reply: -67.6

Query: May I ask what hERG current change (%, negative = inhibition) at 10uM has been recorded for `Cc1ccc(S(=O)(=O)N(C)c2c(C)ccc(S(N)(=O)=O)c2C)cc1` ?
Reply: -10.9

Query: May I ask what hERG current change (%, negative = inhibition) at 10uM has been recorded for `COc1cccc(CN2CCN(Cc3cccc(Oc4ccccc4)c3)CC2)c1OC.O=C(O)C(=O)O` ?
Reply: -21.7

Query: May I ask what hERG current change (%, negative = inhibition) at 10uM has been recorded for `CCn1c(N2CCN(C(=O)C34CC5CC(CC(C5)C3)C4)CC2)nc2ccccc21` ?
Reply: -37.9

Query: May I ask what hERG current change (%, negative = inhibition) at 10uM has been recorded for `CCn1nc([N+](=O)[O-])c2c(-c3nc4ccccc4o3)c(N)n(CCCOC)c2c1=O` ?
Reply: 14.5

Query: May I ask what hERG current change (%, negative = inhibition) at 10uM has been recorded for `CCn1c(N2CCN(C(=O)/C=C/c3ccccc3)CC2)nc2ccccc21` ?
Reply: -80.8

Query: May I ask what hERG current change (%, negative = inhibition) at 10uM has been recorded for `Cn1nc(C(=O)N2CCOCC2)c([N+](=O)[O-])c1C(=O)N1CCOCC1` ?
Reply: -54.4

Query: May I ask what hERG current change (%, negative = inhibition) at 10uM has been recorded for `COc1ccc(/C(C)=N/NC(=O)c2nnn(-c3nonc3N)c2-c2ccccc2)cc1` ?
Reply: 19.8

====

- experimental_system: human ether-à-go-go-related gene (hERG) potassium channel (human);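 also: peak tail current of the secondary pulse compared with the same well before compound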
- experiment: primary screen, population patch clamp on CHO cells stably expressing hERG; higher = less effect of the substance
Hit rate of the full screen: of about 310,000 compounds, about 14,000 (4.5%) showed an effect of 50% or more. Effects have a minus sign here. Many of the other results were omitted from the sample, so strong results are more common in it than they were.
endpoint_name: hERG current change (%, negative = inhibition) at 10uM (%)
// units = %; emit number, no label

The cases that follow already have their hERG current change (%, negative = inhibition) at 10uM on record.
CCN1CCN(c2ccc([N+](=O)[O-])c(Sc3nc4ccccc4[nH]3)c2)CC1; -60.4
COc1ccc(N2CCN(C(=O)CSc3ncccc3-c3nc4ccccc4[nH]3)CC2)cc1; -53.4
O=[N+]([O-])c1ccc(N2CCN(CCO)CC2)cc1Sc1nc2ccccc2[nH]1; -12.4

Query: May I ask what hERG current change (%, negative = inhibition) at 10uM has been recorded for `COc1ccccc1N1CCN(C(=O)CSc2ncccc2-c2nc3ccccc3[nH]2)CC1` ?
Reply: -23.7

Query: May I ask what hERG current change (%, negative = inhibition) at 10uM has been recorded for `CN1CCN(c2ccc([N+](=O)[O-])c(Sc3nc4ccccc4[nH]3)c2)CC1` ?
Reply: -19.7
